target: human β2-AR (Homo sapiens, UniProt P07550); experiment: 3H-CGP12177 whole-cell binding in CHO-β2-CRE-SPAP cells; conditions: β2 over β1 affinity from whole-cell binding
Sequence (P07550 whole entry): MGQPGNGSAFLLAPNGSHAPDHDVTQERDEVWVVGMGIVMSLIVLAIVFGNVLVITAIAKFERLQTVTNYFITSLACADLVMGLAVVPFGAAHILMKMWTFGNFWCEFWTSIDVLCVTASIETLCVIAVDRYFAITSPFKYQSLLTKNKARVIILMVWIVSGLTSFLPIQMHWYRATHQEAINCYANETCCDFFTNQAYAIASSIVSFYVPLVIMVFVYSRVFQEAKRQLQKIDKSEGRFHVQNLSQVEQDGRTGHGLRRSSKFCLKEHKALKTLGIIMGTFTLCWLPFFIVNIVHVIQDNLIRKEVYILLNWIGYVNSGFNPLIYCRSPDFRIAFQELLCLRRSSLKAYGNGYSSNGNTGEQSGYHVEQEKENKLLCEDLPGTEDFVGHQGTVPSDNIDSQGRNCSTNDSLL
readout.name: β2-Selectivity (fold)
Answers are plain numbers, in fold.

Worked set:
compound | assayed.target | β2-Selectivity, fold
COc1ccc(OCC(O)CNCCc2c[nH]c3ccccc23)cc1 (stereo not drawn) | human β2-AR (Homo sapiens, UniProt P07550) | 1.1
CC(C)(Cc1c[nH]c2ccccc12)NCC(O)COc1ccccc1C#N (stereo not drawn) [Bucindolol, reference compound] | human β2-AR (Homo sapiens, UniProt P07550) | 11.2
CC(C)(C)NC[C@@H](O)COc1ccccc1C#N | human β2-AR (Homo sapiens, UniProt P07550) | 2.8

Could I get β2-Selectivity for every one of these entries?
1. Cc1cc2c(OC[C@@H](O)CNC(C)(C)C)cccc2[nH]1
2. COc1ccccc1OC[C@@H](O)CNC(C)C
3. O[C@H](CNCCc1c[nH]c2ccccc12)COc1ccc(F)cc1

**Result**
[12.0, 1.9, 2.1]

###

target: β1-AR (Homo sapiens, UniProt P08588); test: CRE-luciferase production in CHO-β1-CRE-luciferase cells
Sequence (P08588 whole entry): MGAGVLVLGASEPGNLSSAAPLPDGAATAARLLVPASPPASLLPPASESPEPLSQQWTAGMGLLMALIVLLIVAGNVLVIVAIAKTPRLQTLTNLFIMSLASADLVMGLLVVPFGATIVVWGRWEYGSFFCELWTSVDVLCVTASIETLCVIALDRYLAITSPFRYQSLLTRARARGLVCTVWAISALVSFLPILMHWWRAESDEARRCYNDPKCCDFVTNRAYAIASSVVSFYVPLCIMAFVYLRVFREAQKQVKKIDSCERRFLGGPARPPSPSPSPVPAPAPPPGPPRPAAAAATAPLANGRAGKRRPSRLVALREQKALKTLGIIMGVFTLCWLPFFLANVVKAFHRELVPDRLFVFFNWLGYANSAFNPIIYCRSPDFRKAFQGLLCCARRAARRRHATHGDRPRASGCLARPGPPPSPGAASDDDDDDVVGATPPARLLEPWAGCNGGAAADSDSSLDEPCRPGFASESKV
readout.name: pKd
One number for each entry, as −log10 of the molar value.

molecule | assayed.target | pKd
COc1ccccc1OC[C@@H](O)CNC(C)C | β1-AR (Homo sapiens, UniProt P08588) | 8.00

Let's switch to this molecule now.
**Query** Given the entry COc1ccc(OCC(O)CNCCc2c[nH]c3ccccc23)cc1 (centres unmarked) , what pKd was observed with β1-AR (Homo sapiens, UniProt P08588)?
**Result** 6.46

###

Would you kindly list pKd for each of these compounds?
molecular target: β1-WT (Homo sapiens); experiment: 3H-CGP12177 whole-cell binding in stable mixed populations of CHO cells expressing β1-WT
Sequence (P08588 whole entry): as above
One number for each entry, as −log10 of the molar value.

smiles.string | assayed.target | readout.name | result
CC(C)(C)NC[C@@H](O)COc1ccccc1C#N | β1-WT (Homo sapiens) | pKd | 8.70

Let's switch to this compound now.
**Query** Could you tell me which pKd is on file for Cc1cc2c(OC[C@@H](O)CNC(C)(C)C)cccc2[nH]1 ?
**Result** 9.85

###

Molecular target: UniProtKB P08588
Assay: CRE-SPAP production in CHO-β1-CRE-SPAP cells
Type: cell-based
Design: expressed in transfected cells; host or cells: CHO-K1 clonal lines (CHO-β1-CRE-luc, CHO-β1-CRE-SPAP)
Settings: agonist action, CHO-β1-CRE-SPAP cells; read-out: Log EC50 (converted)
Protocol: Many agonist responses were best described by a one-site sigmoidal agonist concentration-response curve. In experiments where 3 different fixed concentrations of the same antagonist were used, Schild plots were constructed using equation (6):(6) logDR-1=logB-logKD These points were then fitted to a straight line. […] Where clear partial agonism was present (eg, Fig. 3D), the partial agonist affinity was calculated by the method of Stephenson[40] using equation 7. […]
Label Criterion met when EC50 is strictly below 20 nM; at or above that, label Criterion not met.

Use these answered entries as a reference point.
compound | assigned.category
CC(C)(Cc1c[nH]c2ccccc12)NCC(O)COc1ccccc1C#N (centres unmarked) [Bucindolol, reference compound] | Criterion met
COc1ccccc1OC[C@@H](O)CNC(C)C [VL05] | Criterion met
COc1ccc(OCC(O)CNCCc2c[nH]c3ccccc23)cc1 (centres unmarked) [VL06] | Criterion not met
Cc1cc2c(OC[C@@H](O)CNC(C)(C)C)cccc2[nH]1 [VL01] | Criterion met

As a next step, examine the compound that follows.
**Query** Field: below-cutoff. Rule: recorded EC50 strictly less than 20 nM. Subject: O[C@H](CNCCc1c[nH]c2ccccc12)COc1ccc(F)cc1 [VL10]
**Result** Criterion met

Data credit: paper PMC12799587
